Where do the numbers come from? From the Immune Epitope Database (IEDB).

molecular target: HLA-B*44:02; assay: IEDB peptide-MHC binding, purified MHC/direct/fluorescence; filed as Kd, often an IC50 or EC50 that approximates it; bounds were set here for any values at or beyond the usual limits of such assays; details: source organism: Mammarenavirus lassaense
pKd: −log10 of the molar value.
Measured Quantity: pKd

Which pKd value is on record for `IEEVMNIVL` ? ≤ 4.70

###

biological target: HLA-A*02:01; assay: IEDB peptide-MHC binding, purified MHC/competitive/fluorescence; filed as Kd, often an IC50 or EC50 that approximates it; bounds were set here for any values at or beyond the usual limits of such assays; details: source organism: Four Corners hantavirus
Measured Quantity: Kd

Recorded Kd of `KLKKKSAFY` , please. ≥ 20 µM
